assay: Tigecycline plasma PK and % F after PO enteric-coated capsule in dogs; format: in vivo, Beagle dogs; settings: female, beagle, dog, plasma, po, 15 mg, 15 mg Unformulated enteric coated capsule, Study 1 (SC424); read-out: % F
attributeMeasured: bioavailability (%)
Give just the number in %; leave the unit off.

Prompt: Which bioavailability is reported for this molecule? CN(C)c1cc(NC(=O)CNC(C)(C)C)c(O)c2c1C[C@H]1C[C@H]3[C@H](N(C)C)C(O)=C(C(N)=O)C(=O)[C@@]3(O)C(O)=C1C2=O
Completion: 0

====

test: Tigecycline plasma PK and % F after PO enteric-coated capsule in dogs; type: in vivo, Beagle dogs; conditions: female, beagle, dog, plasma, po, 30 mg; read-out: % F
attributeMeasured: bioavailability

Prompt: Which bioavailability is reported for this compound? CN(C)c1cc(NC(=O)CNC(C)(C)C)c(O)c2c1C[C@H]1C[C@H]3[C@H](N(C)C)C(O)=C(C(N)=O)C(=O)[C@@]3(O)C(O)=C1C2=O [Tigecycline]
Completion: 14.9%

====

Experiment: Kanamycin and tobramycin plasma PK after IV bolus in dogs
Format: in vivo, Beagle dogs
Details: female, Beagle, dog, plasma, iv, 0.1 mg, single IV bolus 0.10 mg; 90 min
Procedure: Adult Beagle dogs weighing approximately 10 to 15 kg were used in the study. The animals were housed at Sinclair Research Center, Columbia, Mo. either individually or in pairs in over-sized dog runs. […] A 12-hour light/12-hour dark photoperiod was maintained. Room temperature was set to be maintained at 20±5° C. Relative humidity was monitored but not controlled. Animal room and pen cleaning were performed according to the testing facility (Sinclair) SOPs. […]
attributeMeasured: concentration at 90 min (ng/mL)
Give just the number in ng/mL; leave the unit off.

Prompt: Which concentration at 90 min is reported for this compound? NC[C@H]1O[C@H](O[C@H]2[C@H](O)[C@@H](O[C@H]3O[C@H](CO)[C@@H](O)[C@H](N)[C@H]3O)[C@H](N)C[C@@H]2N)[C@H](O)[C@@H](O)[C@@H]1O [Kanamycin]
Completion: 9.24

====

assay: Tigecycline plasma PK after IV bolus in dogs; format: in vivo, Beagle dogs; conditions: female, beagle, dog, plasma, intravenous, 1 mg, Tigecycline Plasma Concentration, 5 min; 1 mg IV in PBS (0.08 mg/kg), SC427; individual dogs
attributeMeasured: concentration at 5 min (ng/mL)
Give just the number in ng/mL; leave the unit off.

Prompt: Which concentration at 5 min is reported for this compound? CN(C)c1cc(NC(=O)CNC(C)(C)C)c(O)c2c1C[C@H]1C[C@H]3[C@H](N(C)C)C(O)=C(C(N)=O)C(=O)[C@@]3(O)C(O)=C1C2=O [Tigecycline]
Completion: 86

====

assay: Tigecycline plasma PK and % F after PO enteric-coated capsule in dogs; format: in vivo, Beagle dogs; settings: female, beagle, dog, plasma, po, 45 mg, Study 2 (SC430); 45 mg Formulated enteric coated capsule (500 mg citric acid, 100 mg LLC), oral, dogs, N=5; mean (% CV); based on that study's IV arm; read-out: % F
attributeMeasured: bioavailability (%)
Give just the number in %; leave the unit off.

Prompt: Which bioavailability is reported for this compound? CN(C)c1cc(NC(=O)CNC(C)(C)C)c(O)c2c1C[C@H]1C[C@H]3[C@H](N(C)C)C(O)=C(C(N)=O)C(=O)[C@@]3(O)C(O)=C1C2=O
Completion: 15.5

Value source: patent US9526785B2
